Numbers sourced from PubChem BioAssay AID1159580.

experimental_protocol: chemical genetic growth profiling, strain panel (AID 1159580);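 further: tested at 20 µM; growth read once vehicle control cultures reached saturation at 30 °C; 1 = growth at the plate median or of vehicle wells; lower values mean less growth of the strain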
assay_context: S. cerevisiae deletion strains, growth OD, locus YOR080W, strain dia2
Among all 5,500 compounds or so, about 2,000 (36%) were called active. Not shown: some 18% with an inconclusive outcome. No stated cut-off is given here; in the data, active means normalized growth mostly below about 0.91 (no sharp cut-off); inconclusive means no clear call, values can overlap the other calls; inactive means mostly above about 0.92. This is one part of the list.
Valid outcomes are listed here; reply with one: 1 (active), 0 (inactive)

Hey, what did the test say about CC1(C)CCCC2(C)C3C1[C@@H](O)C2(C)C[C@H]3O (stereo partly drawn) ?
0

Hey, what did the test say about CC(C)NCC(O)c1ccc(O)c(O)c1 (stereo not drawn) ?
0

Hey, what did the test say about CCCC1O[C@@H]2CC3C4CCC5=CC(=O)C=CC5(C)C4[C@@H](O)CC3(C)[C@]2(C(=O)CO)O1 (stereo partly drawn) ?
0

Hey, what did the test say about NCC(O)c1ccc(O)cc1 (stereo not drawn) ?
0

Hey, what did the test say about CCOP(=S)(OCC)SCn1c(=O)oc2cc(Cl)ccc21 ?
0

Hey, what did the test say about CC(C)(C)NCC(O)c1ccccc1Cl (stereo not drawn) ?
0

Hey, what did the test say about CCOC(=O)c1oc2c(OC)c(O)cc(O)c2c(=O)c1-c1cc(OC)c(OC)c(OC)c1 ?
0

Hey, what did the test say about NC[C@H](O)c1ccc(O)c(O)c1 ?
0

Hey, what did the test say about CC(C)NCC(O)c1ccc2ccccc2c1 (stereo not drawn) ?
0

Hey, what did the test say about CC(=O)O[C@H]1C[C@@H](OC(C)=O)C(C)(C)C2C[C@@H](OC(C)=O)[C@@]3(C)C4=CC(=O)O[C@@H](c5ccoc5)[C@]4(C)CCC3[C@]21C (stereo partly drawn) ?
0

Hey, what did the test say about CNC[C@@H](O)c1ccc(O)c(O)c1 ?
0

Hey, what did the test say about COc1cc(OC)c2c(=O)c(-c3ccccc3)c(C)oc2c1OC ?
0

Hey, what did the test say about Oc1c(I)cc(I)c2cccnc12 ?
1

====

experimental_protocol: chemical genetic growth profiling, strain panel (AID 1159580);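 further: tested at 20 µM; growth read once vehicle control cultures reached saturation at 30 °C; 1 = growth at the plate median or of vehicle wells; lower values mean less growth of the strain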
assay_context: S. cerevisiae deletion strains, growth OD, locus YHR079C, strain IRE1 (second series)
About 2,000 (36%) of roughly 5,500 compounds were called active. Another 18% or so got no clear call; they are omitted. Rule as the data show it: active = normalized growth mostly below about 0.91 (no sharp cut-off); inconclusive = no clear call, values can overlap the other calls; inactive = mostly above about 0.92. The list shows a part of the results.
Valid outcomes are listed here; reply with one: Yes (active), No (inactive)

Hey, what did the test say about C=C[C@@H](C1=CC(=O)C(OC)=C(OC)C1=O)c1ccccc1 ?
No

Hey, what did the test say about O=C(CCCCCCCCCCCCC1CCCC1)Nc1ccc(S(=O)(=O)c2ccc(NC(=O)CCCCCCCCCCCCC3CCCC3)cc2)cc1 ?
No

Hey, what did the test say about CC(C)N(C(=O)SCC(Cl)=C(Cl)Cl)C(C)C ?
No

Hey, what did the test say about CC(=O)OCC1(C)CCC2(C)CCC3(C)C4=CCc5c(cc(OC(C)=O)c(OC(C)=O)c5C)C4(C)CCC3(C)C2C1 (stereo unspecified) ?
No

Hey, what did the test say about C=CC(C1=CC(=O)C(OC)=CC1=O)c1ccc(O)cc1 (stereo unspecified) ?
No

Hey, what did the test say about O=C(OC1Cc2c(O)cc(O)cc2OC1c1cc(O)c(O)c(O)c1-c1c(C2Oc3cc(O)cc(O)c3CC2OC(=O)c2cc(O)c(O)c(O)c2)cc(O)c(O)c1O)c1cc(O)c(O)c(O)c1 (stereo unspecified) ?
No

Hey, what did the test say about COC(=O)[C@]1(C)CC[C@]2(C)CC[C@]3(C)C4=CCc5c(cc(O)c(O)c5C)[C@]4(C)CC[C@@]3(C)C2C1 (stereo partly specified) ?
No

Hey, what did the test say about O=C(O[C@@H]1Cc2c(O)cc(O)cc2O[C@@H]1c1cc(O)c(O)c(O)c1-c1c([C@H]2Oc3cc(O)cc(O)c3C[C@H]2O)cc(O)c(O)c1O)c1cc(O)c(O)c(O)c1 ?
Yes

Hey, what did the test say about C=CC(C1=CC(=O)C=CC1=O)c1ccccc1 (stereo unspecified) ?
No

Hey, what did the test say about CN[C@H](CC(=O)O)C(=O)O ?
No

Hey, what did the test say about CC1(C)CC2C1(O)CCC1(C)C=CC(O)C21CO (stereo unspecified) ?
No

Hey, what did the test say about O=[N+]([O-])c1cc(O)c(O)c([N+](=O)[O-])c1 ?
No

Hey, what did the test say about COC(=O)Oc1ccccc1C(=O)O ?
No

Hey, what did the test say about NCC(CC(=O)O)c1ccc(Cl)s1 (stereo unspecified) ?
No

Hey, what did the test say about O=[N+]([O-])c1ccc(O)c([N+](=O)[O-])c1 ?
Yes

Hey, what did the test say about CCC[C@H]1CC2=C(C[C@@H](CC)CC3=C1C(=O)OC3=O)C(=O)OC2=O ?
No

Hey, what did the test say about Nc1ncnc2c1ncn2C1O[C@H](COP(=O)(O)O)[C@@H](O)[C@H]1O (stereo partly specified) ?
Yes

Hey, what did the test say about C1CNCCN1 ?
No

Hey, what did the test say about NC(=NCCC[C@H](N)C(=O)O)NC(CCC(=O)O)C(=O)O (stereo partly specified) ?
No

Hey, what did the test say about CNc1ccccc1C(=O)O ?
No

Hey, what did the test say about O=C(O)c1cccnc1Nc1cccc(C(F)(F)F)c1 ?
No
